Entry source: patent US20190126075A1

Test system: fecal bacteria
assay procedure: H2 production in fecal incubation system, single digestion-resistant components (Example 1)
Assay type: cell-based, human
settings: Subject No. 6 fecal sample; final concentration 0.5%; 37° C. for 24 hours
assay endpoint: ratio of the H2 production concentration in sample relative to control
One number for each entry.

                            chemical_smiles  observed_value
0                    OC[C@@H](O)[C@@H](O)CO             1.8
1  OC[C@@H](O)[C@@H](O[C@H]1O[C@H](CO)[C@@H](O)[C@H](O)[C@H]1O)[C@H](O)[C@@H](O)CO             8.4
2            OC[C@@H](O)[C@H](O)[C@@H](O)CO             3.2

Known value: fecal bacteria ratio of the H2 production concentration in sample relative to control of the compound "OC[C@@H](O)[C@@H](O)[C@H](O)[C@@H](O)CO" equals 4.2

---

System: fecal bacteria
assay procedure: H2 production in fecal incubation system, single digestion-resistant components (Example 1)
Type: cell-based, human
settings: Subject No. 2 fecal sample; final concentration 0.5%; 37° C. for 24 hours
Task for the reader: assign each of the following compounds its reported ratio of the H2 production concentration in sample relative to control.
Numbers only.

Below, each entry is followed by its recorded ratio of the H2 production concentration in sample relative to control result.
In [3]: df
Out[3]:
                                   compound  observed_value
0   OC[C@@H](O)[C@@H](O)[C@H](O)[C@@H](O)CO             9.6
1  OC[C@@H](O)[C@@H](O[C@H]1O[C@H](CO)[C@@H](O)[C@H](O)[C@H]1O)[C@H](O)[C@@H](O)CO             7.2

Moving on to another compound below.
Just so you know, measured ratio of the H2 production concentration in sample relative to control for OC[C@H]1O[C@@H](O[C@H]2[C@H](O)[C@@H](O)C(O)O[C@@H]2CO)[C@H](O)[C@@H](O)[C@H]1O (stereo partly shown) came out at 9.5

---

Task for the reader: assign each of the following molecules its reported ratio of the H2 production concentration in sample relative to control.
System: fecal bacteria
assay procedure: H2 production in fecal incubation system, single digestion-resistant components (Example 1)
Assay type: cell-based, human
settings: Subject No. 3 fecal sample; final concentration 0.5%; 37° C. for 24 hours
Marks after values point to notes of the source that are not given here.

Below, each entry is followed by its recorded ratio of the H2 production concentration in sample relative to control result.
>>> print(df.to_string())
                                   molecule  observed_value
0   OC[C@@H](O)[C@@H](O)[C@H](O)[C@@H](O)CO           33.0*
1            OC[C@@H](O)[C@H](O)[C@@H](O)CO           40.2*
2  O=C[C@H](O)[C@@H](O)[C@H](O[C@@H]1O[C@H](CO)[C@@H](O)[C@H](O)[C@H]1O)[C@H](O)CO           67.3*
3                    OC[C@@H](O)[C@@H](O)CO             3.8
4  OC[C@H]1O[C@@H](O[C@H]2[C@H](O)[C@@H](O)C(O)O[C@@H]2CO)[C@H](O)[C@@H](O)[C@H]1O (stereo partly shown)           36.6*
5    OC[C@@H](O)[C@@H](O)[C@H](O)[C@H](O)CO          234.7*

Just so you know, measured ratio of the H2 production concentration in sample relative to control for "OC[C@@H](O)[C@@H](O[C@H]1O[C@H](CO)[C@@H](O)[C@H](O)[C@H]1O)[C@H](O)[C@@H](O)CO" came out at 386.6*

---

Task for the reader: assign each of the following molecules its reported ratio of the H2 production concentration in sample relative to control.
Test system: fecal bacteria
assay procedure: H2 production in fecal incubation system, single digestion-resistant components (Example 1)
Assay type: cell-based, human
settings: Subject No. 6 fecal sample; final concentration 0.5%; 37° C. for 24 hours
Marks after values point to notes of the source that are not given here.

Below, each entry is followed by its recorded ratio of the H2 production concentration in sample relative to control result.
                                   molecule  observed_value
0  OC[C@@H](O)[C@@H](O)[C@H](O)[C@H](O)CO [Mannitol, mannitol]           76.2*
1  OC[C@H]1O[C@@H](O[C@H]2[C@H](O)[C@@H](O)C(O)O[C@@H]2CO)[C@H](O)[C@@H](O)[C@H]1O (stereo partly drawn) [Lactose, lactose]           22.1*

Moving on to another molecule below.
Just so you know, measured ratio of the H2 production concentration in sample relative to control for O=C[C@H](O)[C@@H](O)[C@H](O[C@@H]1O[C@H](CO)[C@@H](O)[C@H](O)[C@H]1O)[C@H](O)CO [Cellobiose, cellobiose] came out at 52.0*

---

System: fecal bacteria
assay procedure: H2 production in fecal incubation system, single digestion-resistant components (Example 1)
Format: cell-based, human
settings: Subject No. 2 fecal sample; final concentration 0.5%; 37° C. for 24 hours
Marks after values point to notes of the source that are not given here.
Task for the reader: assign each of the following compounds its reported ratio of the H2 production concentration in sample relative to control.

Below, each entry is followed by its recorded ratio of the H2 production concentration in sample relative to control result.
In [3]: df
Out[3]:
                            chemical_smiles  observed_value
0    OC[C@@H](O)[C@@H](O)[C@H](O)[C@H](O)CO           28.2*
1  O=C[C@H](O)[C@@H](O)[C@H](O[C@@H]1O[C@H](CO)[C@@H](O)[C@H](O)[C@H]1O)[C@H](O)CO           37.0*
2                    OC[C@@H](O)[C@@H](O)CO           27.6*

Just so you know, measured ratio of the H2 production concentration in sample relative to control for "OC[C@@H](O)[C@H](O)[C@@H](O)CO" came out at 11.1*
